# EC50 values compiled below
# system name: hGPR120 (Homo sapiens, UniProt Q5NUL3)
# Sequence (Q5NUL3 1-361): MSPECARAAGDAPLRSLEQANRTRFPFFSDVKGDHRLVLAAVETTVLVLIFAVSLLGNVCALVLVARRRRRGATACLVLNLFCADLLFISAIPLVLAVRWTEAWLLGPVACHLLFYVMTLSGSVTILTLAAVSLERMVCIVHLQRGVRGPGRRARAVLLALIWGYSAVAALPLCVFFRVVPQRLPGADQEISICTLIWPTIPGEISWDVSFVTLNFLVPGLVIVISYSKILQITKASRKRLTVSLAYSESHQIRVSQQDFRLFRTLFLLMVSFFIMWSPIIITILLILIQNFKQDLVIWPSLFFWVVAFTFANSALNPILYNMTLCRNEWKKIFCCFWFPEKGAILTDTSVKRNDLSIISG
# method notes: Measurement of Activity of GPR120 Agonist (Cell-Based Assay), Calcium 5 dye fluorescence
# settings: CHO-K1 cells expressing Ga16 and hGPR120
# Experimental: CHO-K1 cells expressing Ga16 and hGPR120 were dispensed into each well of a 96-well plate (3×10^4 cells/100 μl/well) and then incubated in 5% CO2, 37° C. incubator for 18 hours. […] Each well was treated with 50 μl of the agonist compounds using Plexstation II, and then fluorescence was measured at Ex 485 nm and Em 525 nm. Fluorescence increased by the serially diluted GPR120 agonists is calculated as a relative percent (%) value based on the fluorescence represented by the treatment of 1% DMSO only. […]

Challenge: Checklist item: EC50 tested on hGPR120 (Homo sapiens, UniProt Q5NUL3), entry CC(C)Sc1ncccc1-c1cc(F)c(-n2cc(CC(=O)O)cn2)c(F)c1 , value?
Response given: 2 to 20 µM

---

# system name: hGPR120 (Homo sapiens)
# Sequence (Q5NUL3 1-361): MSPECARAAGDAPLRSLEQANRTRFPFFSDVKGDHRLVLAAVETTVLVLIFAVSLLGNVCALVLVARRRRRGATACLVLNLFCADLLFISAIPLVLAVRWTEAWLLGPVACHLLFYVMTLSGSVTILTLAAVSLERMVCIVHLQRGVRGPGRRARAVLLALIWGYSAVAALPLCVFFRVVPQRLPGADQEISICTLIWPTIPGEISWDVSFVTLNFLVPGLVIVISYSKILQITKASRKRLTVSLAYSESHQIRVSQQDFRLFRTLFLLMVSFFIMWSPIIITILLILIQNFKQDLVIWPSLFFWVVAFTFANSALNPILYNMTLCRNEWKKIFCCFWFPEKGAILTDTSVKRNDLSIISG
# method notes: Measurement of Activity of GPR120 Agonist (Cell-Based Assay), Calcium 5 dye fluorescence
# settings: CHO-K1 cells expressing Ga16 and hGPR120
measure name: EC50

// below: answered compounds
COc1ccc(-c2cc(F)c(OCCCC(=O)O)c(F)c2)nc1OCC1CC1 [Example 459]: < 200 nM
CC(C)Oc1ccnc(-c2cc(F)c(N3CCC(CC(=O)O)C3)c(F)c2)n1 (centres unmarked) [Example 500]: < 200 nM

Challenge: GET /values?readout=EC50&item= CN(CCCC(=O)O)c1c(F)cc(-c2cccc(N3CCCC3)n2)cc1F [Example 467]
Response given: 200 to 2000 nM

Challenge: GET /values?readout=EC50&item= O=C(O)CC1CCN(c2c(F)cc(-c3cccc(C4CCCC4)n3)cc2F)CC1 [Example 317]
Response given: 200 to 2000 nM

Challenge: GET /values?readout=EC50&item= O=C(O)CCC1CC1c1c(F)cc(-c2cccnc2SC2CCCC2)cc1F (centres unmarked) [Example 182]
Response given: < 200 nM
